The values you see were collected from PubChem BioAssay (NCATS).

- System: PAD
- procedureSummary: qHTS profiling for inhibitors of Plasmodium falciparum proliferation (AID 504749); further: nearly all actives have a fitted effect of over 60% in size
- experimentalConditions: P. falciparum in erythrocytes, SYBR Green DNA, 72 h; series mostly up to 28.7 µM
- Method: NIH National Institute of Allergy and Infectious Diseases [NIAID] NIH Chemical Genomics Center [NCGC] […] Because mature erythrocytes lack DNA, only Plasmodium-derived DNA is detected. NCGC Assay Protocol Summary: The SYBR Green viability assay was adapted from a method described previously (Plouffe et al., 2008). […] The following morning, fluorescence intensity at 485(14) nm excitation and 535(25) nm emission wavelengths was measured on an EnVision (Perkin Elmer) plate reader. […]
Results filed as inconclusive are left out. The source made the active and inactive calls. The call rests on the fitted dose curve; in most records, active means well fitted inhibition curve with a large enough effect; inconclusive means small, poorly fitted or top-dose-only effect; inactive means flat fitted curve, though single readings scatter.
Outcome (select one): yes (1) for active, no (0) for inactive

Recorded results for 3 molecules are shown here.
                           molecule  discretelabel
0               FC(F)(F)COCC(F)(F)F         no (0)
1    CCN(CC)CCOc1ccc2nc(N(C)C)sc2c1         no (0)
2  CCCCC/C=C\C/C=C\C/C=C\CCCCC(=O)O         no (0)

Q: Field: outcome | Entry: "O=C(NNCS(=O)(=O)O)c1ccncc1"
Ans: no (0)

Q: Field: outcome | Entry: "COc1ccc2nc(NC(=O)Nc3ccccc3)sc2c1"
Ans: no (0)

Q: Field: outcome | Entry: "CC(=O)Oc1cccc2c1C(=O)c1c(OC(C)=O)cc(C(=O)O)cc1C2=O"
Ans: no (0)

Q: Field: outcome | Entry: "CN=C1C=CC(=C(c2ccc(N(C)C)cc2)c2ccc(N(C)C)cc2)C=C1"
Ans: yes (1)

Q: Field: outcome | Entry: "CC(=O)[O][Al][O]C(C)=O"
Ans: no (0)
